Data credit: patent US20220030868A1

System: Phakopsora pachyrhizi
protocol_text: Test A: test suspension sprayed on soybean seedlings one day before inoculation with Phakopsora pachyrhizi spores (Asian soybean rust), visual disease rating
Type: in vivo
condition_label: 10 ppm test suspension, 100 = 100% disease control, 0 = no control
quantity_kind: Test A rating (disease control) (%)
Please reply with the bare figure in % and do not write the unit itself.

Ask: Look up Test A rating (disease control) for this compound: CN(C)C(=O)C1=NOC(c2ccc(OCC(O)(O)C(F)(F)F)cc2)C1 (stereo not shown) [Compound 41]
Reply: 92

Ask: Quick check: Test A rating (disease control) of CCO/C(=C\Oc1ccc(Cn2cncc2C(=O)OC)cc1)C(F)(F)F [compound 85] ?
Reply: 89

Ask: Query (compound): CCOC(=O)c1cnn(Cc2ccc(OCC3(C(F)(F)F)NCCO3)cc2)c1 (stereo not shown) [Compound 21] ; field requested: Test A rating (disease control)
Reply: 84

Ask: Given the compound CCO/C(=C\Oc1ccc(C(N)=O)cc1)C(F)(F)F [compound 99] , what is its reported Test A rating (disease control)?
Reply: 0

Ask: Dear colleague, I am looking for the recorded Test A rating (disease control) of the following compound: CCO/C(=C\Oc1cccc(Cn2cc(C(=O)OCC(C)C)cn2)c1)C(F)(F)F [compound 334]
Reply: 100

Ask: Requested field: Test A rating (disease control). Item: O=C(NCC1CC1)c1cnc(Cc2ccc(OCC3(C(F)(F)F)OCCO3)cc2)s1 [Compound 259]
Reply: 25

Ask: # lookup: Test A rating (disease control) of CCO/C(=C\Oc1ccc(CNC(=O)CC(F)(F)F)cc1)C(F)(F)F [compound 113]
Reply: 0

Ask: Which Test A rating (disease control) is listed for CN(C)C(=O)C1=NOC(c2ccc(OCC3(C(F)(F)F)OCCO3)cc2)C1 (stereo not shown) [compound 22] ?
Reply: 38

Ask: Look up Test A rating (disease control): CCOC(=O)c1csc(Cc2ccc(OCC(O)(O)C(F)(F)F)cc2)n1 [Compound 136]
Reply: 98

Ask: Which value of Test A rating (disease control) has been reported for C=CCO/C(=C\Oc1ccc(Cn2cc(C(=O)OCC)cn2)cc1)C(F)(F)F [compound 55] in the records?
Reply: 0

* * *

Test system: Phakopsora pachyrhizi
protocol_text: Test A: test suspension sprayed on soybean seedlings one day before inoculation with Phakopsora pachyrhizi spores (Asian soybean rust), visual disease rating
Format: in vivo
condition_label: 10 ppm test suspension, 100 = 100% disease control, 0 = no control
quantity_kind: Test A rating (disease control) (%)
Express your answer in %, writing the number without its unit.

Ask: Reported Test A rating (disease control), compound CCOC(=O)c1cnn(CCc2ccc(OCC3(C(F)(F)F)OCCO3)cc2)c1 : ____
Reply: 79

Ask: What value of measured Test A rating (disease control) is listed for CC=CCOC(=O)c1cnn(Cc2ccc(OCC3(C(F)(F)F)OCCO3)cc2)c1 ?
Reply: 100

Ask: Can you look up the measured Test A rating (disease control) of O=C(NCC1CC1)c1cnc(Cc2ccc(OCC3(C(F)(F)F)OCCO3)cc2)o1 for me?
Reply: 71

Ask: Entry O=[N+]([O-])c1ccc(OCC2(C(F)(F)F)OCCO2)cc1 : reported Test A rating (disease control) = ?
Reply: 100

* * *

System: Phakopsora pachyrhizi
protocol_text: Test A: test suspension sprayed on soybean seedlings one day before inoculation with Phakopsora pachyrhizi spores (Asian soybean rust), visual disease rating
Format: in vivo
condition_label: 10 ppm test suspension, 100 = 100% disease control, 0 = no control
Kindly supply the reported Test A rating (disease control) values for the records listed here.
Quick note: give the figure in %, leave out the unit.

Ask: Fill blank: measured Test A rating (disease control) of the molecule COC(=O)COC(=O)c1cnn(Cc2ccc(OCC3(C(F)(F)F)OCCO3)cc2)c1 [compound 203] is ____.
Reply: 50

Ask: Using the record for CON(Cc1ccc(OCC2(C(F)(F)F)OCCO2)cc1)C(=O)C1CC1 [compound 236] , report its Test A rating (disease control).
Reply: 75

Ask: Requested read-out: Test A rating (disease control). Entry: CCOC(=O)c1cnn(Cc2ccc(OC(F)(F)C(O)(O)C(F)(F)F)cc2)c1 [Compound 227]
Reply: 99

Ask: What does the record list as Test A rating (disease control) for CCCO/C(=C\Oc1ccc(Cn2cc(C(=O)OCC)cn2)cc1)C(F)(F)F [compound 65] ?
Reply: 100

Ask: Tell me the measured Test A rating (disease control) of COC(=O)NN=Cc1ccc(OCC(O)(O)C(F)(F)F)cc1 [Compound 33] , please.
Reply: 96

Ask: Sample CCO/C(=C\Oc1ccc(Cn2ccc(C(=O)OC(C)C)n2)cc1)C(F)(F)F [compound 327] — what was its Test A rating (disease control)?
Reply: 100

Ask: Item under review: CCOC(=O)Cc1nnnn1Cc1ccc(O/C=C(\OCC)C(F)(F)F)cc1 [compound 84] . Reported Test A rating (disease control)?
Reply: 0

Ask: Any idea what its Test A rating (disease control) is? The molecule is O=C(c1csc(Cc2ccc(OCC(O)(O)C(F)(F)F)cc2)n1)N1CCC1 [Compound 215]
Reply: 80

Ask: // returns reported Test A rating (disease control) for input C#CCOC(=O)c1ccn(Cc2ccc(O/C=C(\OCC)C(F)(F)F)cc2)n1 [compound 325]
Reply: 100

Ask: Field request: Test A rating (disease control) | item: C=CCNC(=O)c1ccc(O/C=C(\OCC)C(F)(F)F)cc1 [compound 103]
Reply: 0

Ask: Consider the molecule shown here: CCOC(=O)c1cnn(CCCc2ccc(OCC3(C(F)(F)F)OCCO3)cc2)c1 [compound 296] What is its recorded Test A rating (disease control)?
Reply: 0

Ask: Which Test A rating (disease control) value is on record for CCOC(=O)c1cnn(Cc2ccc(C/C=C(\OCC)C(F)(F)F)cc2)c1 [compound 140] ?
Reply: 98

Ask: May I ask what Test A rating (disease control) has been recorded for NCc1ccc(OCC2(C(F)(F)F)OCCO2)cc1 [compound 174] ?
Reply: 0

Ask: # query: Test A rating (disease control) of entry O=C(O)c1cnn(Cc2ccc(OCC3(C(F)(F)F)OCCO3)cc2)c1 [compound 93]
Reply: 96

Ask: Tell me the measured Test A rating (disease control) of CCO/C(=C\Oc1ccc(Cn2cc(Br)cn2)cc1)C(F)(F)F [compound 183] , please.
Reply: 0

Ask: Requested read-out: Test A rating (disease control). Entry: CCO/C(=C\Oc1ccc(Cn2ccc(C(=O)OCCCCl)n2)cc1)C(F)(F)F [compound 362]
Reply: 100

Ask: Could you share which Test A rating (disease control) value was measured for CCO/C(=C\Oc1ccc(CNC(=O)C(C)C)cc1)C(F)(F)F [compound 210] ?
Reply: 0

Ask: Reported Test A rating (disease control) for CCO/C(=C\Oc1ccc(Cn2cc(C(=O)NCC#N)cn2)cc1)C(F)(F)F [compound 107] : what is it?
Reply: 0

Ask: Fill in the blank: the reported Test A rating (disease control) of OCc1ccc(OCC2(C(F)(F)F)OCCO2)cc1 [compound 178] is ____.
Reply: 0

Ask: Report Test A rating (disease control) for O=C(OCC(F)(F)F)c1cnn(Cc2ccc(OCC3(C(F)(F)F)OCCO3)cc2)c1 [compound 134] please.
Reply: 89

Ask: Need Test A rating (disease control), item CCO/C(=C\Oc1cccc(Cn2cc(C(=O)OCC3CC3)cn2)c1)C(F)(F)F [compound 341]
Reply: 100

Ask: Test A rating (disease control) for CCO/C(=C\Oc1ccc(Cc2ncc(C(=O)NCC3CC3)o2)cc1)C(F)(F)F [compound 258] ?
Reply: 96
